Ref: PubChem BioAssay (NCATS)

system: 3D7; assay: qHTS profiling for inhibitors of Plasmodium falciparum proliferation (AID 504749); also: nearly all actives have a fitted effect of over 60% in size; also: potency is read from the fitted curve at half-maximal effect; conditions: P. falciparum in erythrocytes, SYBR Green DNA, 72 h; series mostly up to 28.7 µM
Records with an inconclusive call do not appear. Activity calls are given as the source filed them. Calls follow the shape of the dose curve; as a rule, active = well fitted inhibition curve with a large enough effect; inconclusive = small, poorly fitted or top-dose-only effect; inactive = flat fitted curve, though single readings scatter.

| compound | Potency |
| --- | --- |
| CCCCC(=O)OCC(=O)[C@]1(O)Cc2c(O)c3c(c(O)c2[C@H](OC2CC(NC(=O)C(F)(F)F)C(O)C(C)O2)C1)C(=O)c1c(OC)cccc1C3=O (some centres not stated) | 1580 nM (active) |
| C[S+](C)CC[C@H](N)C(=O)O | inactive |
| CN(C)CC/C=C1\c2ccccc2COc2ccc(CC(=O)O)cc21 | inactive |
| NC(C(=O)O)c1ccc(O)cc1 (configuration not stated) | inactive |
| O=C1CC[C@H](C(=O)N[C@@H]2C[C@H]2c2ccccc2)N1 | inactive |
| OCC(O)C(O)C(O)C(O)CO (configuration not stated) | inactive |
| CCC(C)C(N)C(=O)O (configuration not stated) | inactive |
| CC1(C)SC2[C@@H](N=CN3CCCCCC3)C(=O)N2[C@H]1C(=O)O (some centres not stated) | inactive |
| CC1(C)SC2C(NC(=O)C(C(=O)O)c3ccccc3)C(=O)N2C1C(=O)O (configuration not stated) | inactive |
| CO/N=C(/C(=O)N[C@@H]1C(=O)N2C(C(=O)O)=C(CSc3cnns3)CS[C@H]12)c1csc(N)n1 | inactive |
| C[C@H]1[C@@H](OC(=O)CCC(=O)O)OC2OC3(C)CC[C@H]4[C@H](C)CC[C@@H]1[C@@]24OO3 (some centres not stated) | 5 nM (active) |
| C[C@@](Cc1ccccc1)(NC(=O)CN)c1ccccc1 | inactive |
| C[C@@H](O)[C@@H]1C(=O)N2C(C(=O)O)=C([C@H]3CCCO3)S[C@H]12 | inactive |
| O=C(O)C(O)c1ccccc1 (configuration not stated) | inactive |
| NC(C(=O)O)C(O)c1ccc(O)c(O)c1 (configuration not stated) | 8910 nM (active) |
| CCC(C(=O)O)C1OC(C(C)C(O)C(C)C(=O)C(CC)C2OC3(C=CC(O)C4(CCC(C)(C5CCC(O)(CC)C(C)O5)O4)O3)C(C)CC2C)C(C)CC1C (configuration not stated) | 100 nM (active) |
| OC[C@@H](O)C(O[C@@H]1O[C@@H](CO)[C@H](O)[C@H](O)[C@H]1O)[C@H](O)[C@@H](O)CO (some centres not stated) | inactive |
| C/C(=C(/CCO)SS/C(CCO)=C(\C)N(C=O)Cc1cnc(C)nc1N)N(C=O)Cc1cnc(C)nc1N | inactive |
| CCCCCCCCCCCCCCCC(=O)OC[C@H](O)[C@H]1OC[C@@H](O)[C@@H]1O | inactive |
| O=C(O)Cc1sc(-c2ccc(Cl)cc2)nc1-c1ccccc1 | inactive |
| C=NC(C(=O)NC1C(=O)N2C1SC(C)(C)C2C(=O)O)c1ccccc1 (configuration not stated) | inactive |
| CO[C@H]1C[C@@H]2CC[C@@H](C)[C@@](O)(O2)C(=O)C(=O)N2CCCC[C@H]2C(=O)O[C@H]([C@H](C)C[C@@H]2CC[C@@H](O)[C@H](OC)C2)CC(=O)[C@H](C)/C=C(\C)[C@@H](O)[C@@H](OC)C(=O)[C@H](C)C[C@H](C)/C=C/C=C/C=C/1C | 2820 nM (active) |
